Tested on: XIP peptide (Xip251-270)
Assay: small-molecule binders of XIP peptide, primary screen, biochemical, small-molecule microarray, fluorescence 635/667 nm, 0.5 µg/mL protein (AID 1183)
Conditions: small-molecule microarray binding, fluorescence 635 nm; higher = more signal
Listing: composite z-score of selected molecules
Lab note: record the figure alone, no unit after it.

INSERT INTO assay_data (molecule, measuredtarget, observable, experimentalresult) VALUES
  ('Cc1ccccc1C(O)C1C=CC2C(=O)N(c3ccccc3)C(=O)C2N1Nc1ccc([N+](=O)[O-])cc1 (stereo not drawn)', 'XIP peptide (Xip251-270)', 'composite z-score', 0.618),
  ('COCCOC(=O)N1C(=O)[C@@]2(c3cc(C#CCC(C(=O)OC)C(=O)OC)ccc31)[C@H](c1ccc(OCCO)cc1)N1[C@H](c3ccccc3)[C@H](c3ccccc3)OC(=O)[C@H]1[C@@H]2C(=O)Nc1nc2ccccc2s1', 'XIP peptide (Xip251-270)', 'composite z-score', 0.59),
  ('C=C(COC)C(=O)CC[C@H](OC(=O)c1cccnc1)c1ccc(CO)o1', 'XIP peptide (Xip251-270)', 'composite z-score', 0.193),
  ('CO[C@H]1O[C@H](CO)[C@@H](OC(=O)Nc2ccc(C#N)cc2)[C@@H]2OC(=O)[C@H](Cc3cccc(Br)c3)C/C=C/C[C@@H](Cc3cccc(Br)c3)C(=O)O[C@@H]12', 'XIP peptide (Xip251-270)', 'composite z-score', 0.254),
  ('C=C/C=C/[C@@H]1C(=C)CN([C@@H](Cc2ccccc2)C(=O)OC)[C@H]1[C@@H](O)Cc1ccccc1', 'XIP peptide (Xip251-270)', 'composite z-score', 0.58),
  ('CCCCC(=C=CC[C@H](O)c1ccc(OCCO)cc1)C[C@H](O)COCc1ccccc1', 'XIP peptide (Xip251-270)', 'composite z-score', 0.1);

Could you now consider this next molecule?
Look up composite z-score: COc1ccc(C#Cc2ccc3c(c2)[C@]2(C(=O)N3)[C@H](C(=O)N3CCCCCCC3)[C@H]3C(=O)O[C@H](c4ccccc4)[C@H](c4ccccc4)N3[C@@H]2c2ccc(O)cc2)cc1
0.755

* * *

Experiment: PSAC antagonists in infected red cells, primary screen, cell-based, P. falciparum Indochina, OD700, 2 h (AID 1155);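 also: lysis reports solute entry through the parasite surface anion channel PSAC; channel blockers reduce lysis of infected cells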
Details: P. falciparum Indochina infected erythrocytes, osmotic lysis OD700, called active from +8 up or from −8 down
Active and inactive are the calls of the source.
In this exercise, the only acceptable responses are true = active, false = inactive

Reference set, count: 3
INSERT INTO measurements (molecule, label) VALUES
  ('CCC(CC)C(O)C1C=CC2C(=O)N(c3ccccc3)C(=O)C2N1Nc1ccc([N+](=O)[O-])cc1 (centres undefined)', 'false'),
  ('O=C1C2C=CC(C(O)c3ccc4c(c3)OCO4)N(Nc3ccccc3)C2C(=O)N1c1ccccc1 (centres undefined)', 'false'),
  ('[N-]=[N+]=Nc1ccccc1C[C@@]1(C(=O)O)N=C(c2ccc(OCCCO)cc2)O[C@@H]1c1ccccc1N=[N+]=[N-]', 'true');

Recorded test call requested for CN1C=C(C(=O)OCCS(C)(=O)=O)C(C(=O)OCCS(C)(=O)=O)=CC(c2ccc(CO)cc2)=CC1c1cccs1 (centres undefined)
false
